experimental system: α4β1 (Homo sapiens, UniProt P05556+P13612)
Construct: Ramos Cell Adhesion Assay (α4β1 Mediated Adhesion/VCAM-1); endogenous in cells; host or cells: Ramos cells
Sequence (P13612 34-1032): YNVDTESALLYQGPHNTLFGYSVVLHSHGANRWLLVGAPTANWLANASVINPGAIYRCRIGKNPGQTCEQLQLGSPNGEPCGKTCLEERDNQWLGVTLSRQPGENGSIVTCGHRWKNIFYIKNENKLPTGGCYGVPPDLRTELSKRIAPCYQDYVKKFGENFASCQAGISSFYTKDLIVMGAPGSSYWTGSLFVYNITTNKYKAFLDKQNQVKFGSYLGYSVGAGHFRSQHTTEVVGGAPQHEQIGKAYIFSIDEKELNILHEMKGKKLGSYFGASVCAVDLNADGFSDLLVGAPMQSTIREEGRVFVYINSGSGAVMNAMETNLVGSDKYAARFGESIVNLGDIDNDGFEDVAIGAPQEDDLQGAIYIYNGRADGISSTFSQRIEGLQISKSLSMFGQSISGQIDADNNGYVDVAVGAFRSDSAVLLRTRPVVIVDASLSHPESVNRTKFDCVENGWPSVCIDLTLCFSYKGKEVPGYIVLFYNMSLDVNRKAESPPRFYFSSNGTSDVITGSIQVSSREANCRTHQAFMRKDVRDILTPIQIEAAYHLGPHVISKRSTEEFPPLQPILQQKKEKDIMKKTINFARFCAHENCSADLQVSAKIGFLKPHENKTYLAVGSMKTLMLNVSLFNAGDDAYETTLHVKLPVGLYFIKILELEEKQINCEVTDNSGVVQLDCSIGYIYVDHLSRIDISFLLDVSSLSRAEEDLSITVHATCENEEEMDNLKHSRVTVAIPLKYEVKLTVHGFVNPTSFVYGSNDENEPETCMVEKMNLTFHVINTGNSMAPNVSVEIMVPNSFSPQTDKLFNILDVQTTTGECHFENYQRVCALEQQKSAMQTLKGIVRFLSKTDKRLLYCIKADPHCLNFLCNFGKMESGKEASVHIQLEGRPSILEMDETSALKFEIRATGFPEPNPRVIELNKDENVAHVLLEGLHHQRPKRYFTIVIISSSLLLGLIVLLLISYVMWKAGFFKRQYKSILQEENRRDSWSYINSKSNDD
Sequence (P05556 21-798): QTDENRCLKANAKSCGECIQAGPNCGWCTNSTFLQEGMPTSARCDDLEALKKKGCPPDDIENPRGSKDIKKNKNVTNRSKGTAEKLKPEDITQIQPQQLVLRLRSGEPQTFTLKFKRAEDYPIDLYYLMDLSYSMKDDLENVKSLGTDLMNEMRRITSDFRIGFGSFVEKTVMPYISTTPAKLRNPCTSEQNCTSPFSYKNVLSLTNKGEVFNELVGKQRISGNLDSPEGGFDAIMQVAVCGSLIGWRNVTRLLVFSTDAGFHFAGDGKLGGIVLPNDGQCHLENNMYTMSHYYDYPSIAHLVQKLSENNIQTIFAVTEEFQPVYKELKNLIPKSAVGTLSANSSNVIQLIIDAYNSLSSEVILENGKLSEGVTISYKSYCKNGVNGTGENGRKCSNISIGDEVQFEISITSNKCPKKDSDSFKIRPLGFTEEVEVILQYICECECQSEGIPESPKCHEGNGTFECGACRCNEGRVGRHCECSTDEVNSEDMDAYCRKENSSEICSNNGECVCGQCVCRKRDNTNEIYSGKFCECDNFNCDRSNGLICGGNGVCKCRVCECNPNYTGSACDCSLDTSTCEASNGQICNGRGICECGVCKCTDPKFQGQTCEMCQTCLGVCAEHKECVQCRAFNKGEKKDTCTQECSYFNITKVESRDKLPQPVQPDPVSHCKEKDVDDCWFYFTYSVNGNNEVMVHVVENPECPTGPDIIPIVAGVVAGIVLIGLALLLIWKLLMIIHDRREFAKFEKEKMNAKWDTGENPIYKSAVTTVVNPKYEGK
experiment notes: Ramos Cell Adhesion Assay (α4β1 Mediated Adhesion/VCAM-1)
Format: cell-based
reported conditions: Ramos cell adhesion to hVCAM-1; read-out: α4β1 IC50
endpoint name: pIC50
Just the number, please; pIC50 means minus log10 of the concentration in mol/L.

q: Look at this compound and give its reported pIC50. COc1cnn(C)c(=O)c1-c1ccc(C[C@H](NC(=O)c2c(Cl)cccc2Cl)C(=O)OCCN(C)C)cc1 [Cpd 34]
a: 6.60

q: How about this compound: COc1cnn(C)c(=O)c1-c1ccc(C[C@H](NC(=O)c2c(Cl)c[n+]([O-])cc2Cl)C(=O)O)cc1 [Cpd 9]
a: 7.64

q: Another compound to check: COc1cnn(C)c(=O)c1-c1ccc(C[C@H](NC(=O)c2ccc(C(=O)O)cc2)C(=O)O)cc1 [Cpd 137]
a: 6.02

q: Now the same for Cn1nc2c(c(-c3ccc(C[C@H](NC(=O)c4c(Cl)cccc4Cl)C(=O)O)cc3)c1=O)OCCO2 [Cpd 6]
a: 7.31

###

Give pIC50 for every item shown.
experimental system: α4β1 (Homo sapiens, UniProt P05556+P13612)
Construct: Ramos Cell Adhesion Assay (α4β1 Mediated Adhesion/VCAM-1); endogenous in cells; host or cells: Ramos cells
experiment notes: Ramos Cell Adhesion Assay (α4β1 Mediated Adhesion/VCAM-1)
Type: cell-based
reported conditions: Ramos cell adhesion to hVCAM-1; read-out: α4β1 IC50
pIC50: −log10 of the molar value.

q: # lookup: pIC50 of COc1cnn(C)c(=O)c1-c1ccc(C[C@H](NC(=O)C2(NC(C)C)CCOCC2)C(=O)O)cc1
a: 6.03

q: Entry to check: COc1cnn(C)c(=O)c1-c1ccc(C[C@H](NC(=O)NC2CCCCC2)C(=O)O)cc1
a: < 5.30

q: Would you mind doing COc1cnn(C)c(=O)c1-c1ccc(CC(NC(=O)C(C(C)C)n2c(C)cc(C(=O)c3ccccc3)c2C)C(=O)O)cc1 (stereo not drawn) as well?
a: < 5.30

q: What do you have for COc1cnn(C)c(=O)c1-c1ccc(C[C@H](NC(=O)C2(O)CC2)C(=O)O)cc1 ?
a: < 5.30

q: // next record COc1cnn(C)c(=O)c1-c1ccc(C[C@H](NC(=O)[C@@H](NC2CCCCC2)C(C)C)C(=O)O)cc1
a: < 5.30

q: What would you report for COc1cc(N)c(Cl)cc1C(=O)N[C@@H](Cc1ccc(-c2c(OC)cnn(C)c2=O)cc1)C(=O)O ?
a: < 5.30

q: Follow-up entry: COc1cnn(C)c(=O)c1-c1ccc(C[C@H](NC(=O)C(C)(C)NC(C)C)C(=O)O)cc1
a: < 5.30

q: Try this molecule too: COc1cnn(C)c(=O)c1-c1ccc(CC(NC(=O)C2(C(=O)NC(Cc3ccc(-c4c(OC)cnn(C)c4=O)cc3)C(=O)O)CC2)C(=O)O)cc1 (stereo not drawn)
a: 5.89

q: Same question for COc1cnn(C)c(=O)c1-c1ccc(C[C@H](NC(=O)C(=O)C(C)C)C(=O)O)cc1 please.
a: < 6.00

q: Again, but for CN(C)c1cnn(C(C)(C)C)c(=O)c1-c1ccc(C[C@H](NC(=O)c2c(Cl)cccc2Cl)C(=O)O)cc1
a: < 6.00

q: Moving on to the next molecule: COc1cnn(C)c(=O)c1-c1ccc(C[C@H](NC(=O)C2CCN(C(=O)OCc3ccccc3)CC2)C(=O)O)cc1
a: < 5.30

q: And what about the molecule COc1cnn(CCN2CCOCC2)c(=O)c1-c1ccc(C[C@H](NC(=O)[C@H](N)C(C)C)C(=O)O)cc1 ?
a: < 5.30

q: Cool, now COc1cnn(C)c(=O)c1-c1ccc(C[C@H](NC(=O)c2cccnc2O)C(=O)O)cc1
a: < 5.30

q: Another molecule: COc1cnn(C)c(=O)c1-c1ccc(C[C@H](NC(=O)c2cnoc2C)C(=O)O)cc1
a: < 5.30

q: Next molecule: O=C(N[C@@H](Cc1ccc(-c2c(OCC3CC3)cnn(CCO)c2=O)cc1)C(=O)O)c1c(Cl)cccc1Cl
a: 6.47
